So I've got a bunch of compounds here, and I need their pIC50 values.
Target: UniProt:O15151
Sequence (O15151 1-125): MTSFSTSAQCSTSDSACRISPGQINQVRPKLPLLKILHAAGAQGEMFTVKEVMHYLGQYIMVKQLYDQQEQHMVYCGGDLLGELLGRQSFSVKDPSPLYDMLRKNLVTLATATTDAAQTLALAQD
Test: Competitive fluorescence polarization assay for MDMX
Assay type: binding
Settings: competitive FP assay, read-out: IC50 (MDMX)
pIC50: −log10 of the molar value. Where a SMILES comes first, the peptide text is derived from it. Bridges are numbered along the chain shown (N, C = ends). [ ]: non-standard residue; d: D form. R8 = C=CCCCCCC[C@@](C)(N)C(=O)O; Cba = N[C@@H](CC1CCC1)C(=O)O; S5 = C=CCCC[C@](C)(N)C(=O)O; Nle = CCCC[C@H](N)C(=O)O

CCCC[C@H](NC(=O)[C@H](C)NC(=O)[C@H](C)NC(=O)[C@]1(C)CCCC=CCCCCCC[C@@](C)(NC(=O)[C@H](Cc2ccccc2)NC(=O)[C@@H](NC(=O)[C@H](C)NC(C)=O)[C@@H](C)O)C(=O)N[C@@H](CCC(=O)O)C(=O)N[C@@H](Cc2ccc(O)cc2)C(=O)N[C@@H](Cc2c[nH]c3ccccc23)C(=O)N[C@@H](C)C(=O)N[C@@H](CCC(N)=O)C(=O)N[C@@H](CC(C)C)C(=O)N1)C(=O)N[C@@H](C)C(N)=O [compound 370] (Ac-ATF[R8]EYWAQL[S5]AA[Nle]A-NH2; staple 4-11)    7.00 to 8.00

Name the recorded pIC50 of the compound listed here: CC(=O)N[C@@H](CC(C)C)C(=O)N[C@H](C(=O)N[C@@H](Cc1ccccc1)C(=O)N[C@]1(C)CCCCCCC=CCCC[C@@](C)(C(=O)N[C@@H](CO)C(=O)N[C@@H](C)C(=O)N[C@@H](Cc2ccccc2)C(=O)N[C@@H](C)C(N)=O)NC(=O)[C@H](CC2CCC2)NC(=O)[C@H](CCC(N)=O)NC(=O)[C@H](C)NC(=O)[C@H](Cc2c[nH]c3ccccc23)NC(=O)[C@H](Cc2ccc(O)cc2)NC(=O)[C@H](CCC(=O)O)NC1=O)[C@@H](C)O [compound 242] (Ac-LTF[R8]EYWAQ[Cba][S5]SAFA-NH2; staple 4-11)
6.00 to 7.00
